Test system: Oryza sativa
assay.explanation: Phytotoxicity against directly seeded Oryza sativa (rice) seedlings assessed as phytotoxic activity ratings (0- no effect to 5-complete killing rating scale) at 100 g/a measured after 3 weeks post compound treatment under green house conditions
Type: organism-based
conditions.used: in vivo, 504 h
Below, each of the compounds is paired with its reported Activity value.
Reply numerically in %, unit not repeated.

Illustrative cases are given below, each with its answer.
• C[C@@H](NC(=O)Nc1ccccc1F)c1ccccc1 = 10
• CC(=O)c1cccc(NC(=O)N[C@@H](C)c2ccccc2)c1 = 0
• CCc1ccccc1NC(=O)N[C@H](C)c1ccccc1 = 0

// recorded Activity for `C[C@@H](NC(=O)Nc1ccc(C(F)(F)F)cc1)c1ccccc1` : 0

// Activity lookup, compound = `C[C@H](NC(=O)Nc1cc(C(C)(C)C)ccc1C(C)(C)C)c1ccccc1` , result: 0

Record summary for Cc1ccc(NC(=O)NC(C)(C)c2ccccc2)cc1 [DAIMURON] : reported Activity = 10

* * *

Test system: Oryza sativa
assay.explanation: Phytotoxicity against directly seeded Oryza sativa (rice) seedlings assessed as phytotoxic activity ratings (0- no effect to 5-complete killing rating scale) at 100 g/a measured after 3 weeks post compound treatment under green house conditions
Type: organism-based
conditions.used: in vivo, 504 h
recorded.endpoint: Activity (%)
Respond with the bare value in %.

* C[C@H](NC(=O)Nc1ccc(F)c(F)c1)c1ccccc1 | 0

Entry `C[C@@H](NC(=O)Nc1ccccc1)c1ccccc1` — recorded Activity = 0

Activity reading for `COc1ccc(NC(=O)N[C@H](C)c2ccccc2)cc1` : 0

Sure, the documented Activity for `CCc1cccc(NC(=O)N[C@H](C)c2ccccc2)c1` is 0

Field Activity (entry `C[C@@H](NC(=O)Nc1ccc(Cl)c(Cl)c1)c1ccccc1` ) reads 0

The compound identified as `Cc1ccc(NC(=O)N[C@H](C)c2ccccc2)c(F)c1` registered its Activity at 0

Quick note, Activity for `Cc1ccc(NC(=O)N[C@@H](C)c2ccccc2)c(F)c1` landed at 0

Noted for `CC(C)c1ccc(NC(=O)N[C@@H](C)c2ccccc2)cc1` : its Activity reads 0

The recorded Activity for `CC(C)c1ccccc1NC(=O)N[C@@H](C)c1ccccc1` is 0

# Activity of `C[C@H](NC(=O)Nc1cc(F)ccc1F)c1ccccc1` = 10

Per the record, `C[C@@H](NC(=O)Nc1ccc(F)cc1)c1ccccc1` has Activity of 0

GET /value?item= `C[C@@H](NC(=O)Nc1ccccc1C(F)(F)F)c1ccccc1` &field=Activity returns 10

According to the records, this compound `C[C@H](NC(=O)Nc1ccccc1F)c1ccccc1` displays Activity of 40

Activity for `C[C@H](NC(=O)Nc1ccc(F)cc1F)c1ccccc1` is 0

The recorded Activity for `Cc1cc(F)ccc1NC(=O)N[C@H](C)c1ccccc1` is 0

* * *

Test system: Oryza sativa
assay.explanation: Phytotoxicity against directly seeded Oryza sativa (rice) seedlings assessed as phytotoxic activity ratings (0- no effect to 5-complete killing rating scale) at 100 g/a measured after 3 weeks post compound treatment under green house conditions
Format: organism-based
conditions.used: in vivo, 504 h
recorded.endpoint: Activity
Dear colleague, please send the value followed by its unit.

// solved cases for Activity follow
* COc1cccc(NC(=O)N[C@H](C)c2ccccc2)c1 | 10%
* C[C@@H](NC(=O)Nc1cc(C(F)(F)F)ccc1F)c1ccccc1 | 10%

Now look at this entry.
The compound listed as `CC(C)c1cccc(NC(=O)N[C@@H](C)c2ccccc2)c1` has a reported Activity of 0%
